molecular target: Recombinant human ULK1 (1-649) (Homo sapiens (Human)); assay: ULK1 ADP Glo kinase activity assay, new method (ULKtide peptide substrate); conditions: 25° C., 40 minutes, read-out: ULK1 biochemical IC50
Sequence (O75385 1-649): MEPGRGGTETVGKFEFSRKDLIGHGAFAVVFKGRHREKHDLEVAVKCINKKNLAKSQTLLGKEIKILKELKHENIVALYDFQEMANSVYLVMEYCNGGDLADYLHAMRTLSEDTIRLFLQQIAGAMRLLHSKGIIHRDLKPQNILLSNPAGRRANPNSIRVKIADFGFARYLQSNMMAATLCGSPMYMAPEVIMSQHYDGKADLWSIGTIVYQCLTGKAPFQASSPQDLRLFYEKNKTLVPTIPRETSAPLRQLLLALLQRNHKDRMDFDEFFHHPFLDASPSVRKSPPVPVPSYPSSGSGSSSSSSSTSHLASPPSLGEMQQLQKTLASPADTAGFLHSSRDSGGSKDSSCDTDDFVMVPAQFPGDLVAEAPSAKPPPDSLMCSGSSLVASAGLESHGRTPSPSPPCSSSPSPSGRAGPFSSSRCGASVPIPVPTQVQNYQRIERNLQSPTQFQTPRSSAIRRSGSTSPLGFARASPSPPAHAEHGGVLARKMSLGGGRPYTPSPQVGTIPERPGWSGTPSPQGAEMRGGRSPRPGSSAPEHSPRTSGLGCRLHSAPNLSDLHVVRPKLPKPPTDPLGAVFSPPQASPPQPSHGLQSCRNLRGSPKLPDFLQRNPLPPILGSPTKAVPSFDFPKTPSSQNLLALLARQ
PROPERTY: IC50

Please fill in: IC50 reported for CCc1cc(C2CCN(CC(F)F)CC2)ccc1Nc1ncc(C(F)(F)F)c(-c2cc3c(s2)C(=O)N(C2COC2)CCS3(=O)=O)n1 = 5 to 10 nM

For record CN1CCC(c2ccc(Cl)c(Nc3ncc(C(F)(F)F)c(-c4cc5c(s4)C(=O)N(C)CCS5(=O)=O)n3)c2)CC1 the listed IC50 is 10 to 50 nM

// IC50 value for CN1CCS(=O)(=O)c2cc(-c3nc(Nc4cc5c(cc4C4CC4)CN(CCF)CC5)ncc3C(F)(F)F)sc2C1=O : ≤ 5 nM

Short answer for CC(C)c1cc2c(cc1Nc1ncc(C(F)(F)F)c(-c3cc4c(s3)C(=O)N(C3CC3)CCS4(=O)=O)n1)CCN(CC1COC1)C2 : IC50 was ≤ 5 nM

So, CCc1cc2c(cc1Nc1ncc(C(F)(F)F)c(-c3cc4c(s3)C(=O)N(C3CCC3)CCS4(=O)=O)n1)CCNC2 ? Its IC50 was ≤ 5 nM

So, CN1CCc2cc(Nc3ncc(C(F)(F)F)c(-c4cc5c(s4)C(=O)N(C)CCS5(=O)=O)n3)c(F)cc2C1 ? Its IC50 was ≤ 5 nM

The compound CN1CCS(=O)(=O)c2cc(-c3nc(Nc4cc5c(cc4Cl)CN(CCF)CC5)ncc3C(F)(F)F)sc2C1=O showed IC50 equal to ≤ 5 nM

Origin of values: patent US20250144094A1
